- ASSAYED_TARGET: DLG1_2, Q12959
- Sequence (Q12959 314-412): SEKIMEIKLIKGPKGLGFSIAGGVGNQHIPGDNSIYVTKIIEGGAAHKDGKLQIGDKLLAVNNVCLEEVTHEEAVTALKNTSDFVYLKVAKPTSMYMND
- METHOD: holdup assay
- Design: key: below the threshold = too weak to quantify, mostly under pKd 3.1 to 4
- TEST_PARAMETERS: plain residues with an end cap or a label only (N-terminal biotin on a linker: ado-ado)
METRIC_NAME: pKd
Respond with the number and no other words.

Worked examples, 3 binders total:
# BINDER, pKd
rows = [
    ("GFGEERESIL [KIDINS220, Q9ULH0]", 3.88),
    ("TETASVCTKV [SLC23A1, Q9UHI7]", 4.4),
    ("FVHPILQSAV [PRKCA, P17252]", 4.52),
]

Here's the next entry for you.
// field: pKd; key: EEPEERHTEL [CES2, O00748] ; value = 4.13

Source of measurements: paper PMC9482650
